// reported TGI per item
tested on: UO-31 renal; assay: NCI tumour cell line growth inhibition, 48 h

>  <COMPOUND>
c1ccc(COCC2OC3c4ccccc4COC3C2OCc2ccccc2)cc1 (stereo unspecified)

>  <TGI>
> 100 µM

$$$$
>  <COMPOUND>
COc1ccc(C(=O)c2cc3c(N)c(C(=O)Nc4cccc(Cl)c4C)sc3nc2C)cc1

>  <TGI>
> 25 µM

$$$$
>  <COMPOUND>
COc1cccc(CC2Cc3ccccc3CC(=O)N2)c1 (stereo unspecified)

>  <TGI>
> 100 µM

$$$$
>  <COMPOUND>
N#CC(Cc1ccccc1Br)N(CCC1=CCCCC1)C(c1ccccc1)c1ccccc1 (stereo unspecified)

>  <TGI>
> 100 µM

$$$$
>  <COMPOUND>
NC(CCOCCP(=O)(O)CCOCCC(N)C(=O)O)C(=O)O (stereo unspecified)

>  <TGI>
> 100 µM

$$$$
>  <COMPOUND>
COC(=O)c1ccccc1/C=C1\Cc2cc(C)c(C)cc2C1=O

>  <TGI>
> 100 µM

$$$$
